- study.system: PI3K p110α/p85 (Homo sapiens, UniProt P42336)
- Sequence (P42336 whole entry): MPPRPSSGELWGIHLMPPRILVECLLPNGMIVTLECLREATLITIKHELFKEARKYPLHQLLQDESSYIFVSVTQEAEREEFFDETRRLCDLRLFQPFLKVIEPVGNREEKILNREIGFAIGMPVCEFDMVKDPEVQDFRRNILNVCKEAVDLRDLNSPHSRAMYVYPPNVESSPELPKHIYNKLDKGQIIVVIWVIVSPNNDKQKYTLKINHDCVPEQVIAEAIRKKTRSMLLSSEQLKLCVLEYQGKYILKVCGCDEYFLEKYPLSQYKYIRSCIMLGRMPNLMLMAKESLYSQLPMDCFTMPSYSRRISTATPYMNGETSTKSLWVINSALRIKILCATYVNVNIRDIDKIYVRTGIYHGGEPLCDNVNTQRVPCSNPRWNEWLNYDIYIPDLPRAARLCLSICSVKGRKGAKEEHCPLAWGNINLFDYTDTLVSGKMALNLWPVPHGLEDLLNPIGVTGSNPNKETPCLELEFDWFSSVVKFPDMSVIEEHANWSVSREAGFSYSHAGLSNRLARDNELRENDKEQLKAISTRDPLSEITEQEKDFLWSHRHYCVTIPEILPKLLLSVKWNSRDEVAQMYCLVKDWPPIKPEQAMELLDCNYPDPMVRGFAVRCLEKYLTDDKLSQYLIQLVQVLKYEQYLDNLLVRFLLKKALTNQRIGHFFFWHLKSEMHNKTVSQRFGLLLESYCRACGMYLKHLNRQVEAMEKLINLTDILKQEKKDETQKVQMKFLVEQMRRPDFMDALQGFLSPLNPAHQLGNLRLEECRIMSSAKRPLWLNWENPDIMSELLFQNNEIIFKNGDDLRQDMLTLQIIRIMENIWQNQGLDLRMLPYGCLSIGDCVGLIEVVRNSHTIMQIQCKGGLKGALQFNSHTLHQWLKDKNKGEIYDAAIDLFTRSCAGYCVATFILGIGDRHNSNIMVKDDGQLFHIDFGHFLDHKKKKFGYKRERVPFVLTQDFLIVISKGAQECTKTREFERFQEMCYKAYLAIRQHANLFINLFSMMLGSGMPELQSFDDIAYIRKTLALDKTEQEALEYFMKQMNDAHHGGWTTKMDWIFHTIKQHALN
- Sequence (P27986 whole entry partner): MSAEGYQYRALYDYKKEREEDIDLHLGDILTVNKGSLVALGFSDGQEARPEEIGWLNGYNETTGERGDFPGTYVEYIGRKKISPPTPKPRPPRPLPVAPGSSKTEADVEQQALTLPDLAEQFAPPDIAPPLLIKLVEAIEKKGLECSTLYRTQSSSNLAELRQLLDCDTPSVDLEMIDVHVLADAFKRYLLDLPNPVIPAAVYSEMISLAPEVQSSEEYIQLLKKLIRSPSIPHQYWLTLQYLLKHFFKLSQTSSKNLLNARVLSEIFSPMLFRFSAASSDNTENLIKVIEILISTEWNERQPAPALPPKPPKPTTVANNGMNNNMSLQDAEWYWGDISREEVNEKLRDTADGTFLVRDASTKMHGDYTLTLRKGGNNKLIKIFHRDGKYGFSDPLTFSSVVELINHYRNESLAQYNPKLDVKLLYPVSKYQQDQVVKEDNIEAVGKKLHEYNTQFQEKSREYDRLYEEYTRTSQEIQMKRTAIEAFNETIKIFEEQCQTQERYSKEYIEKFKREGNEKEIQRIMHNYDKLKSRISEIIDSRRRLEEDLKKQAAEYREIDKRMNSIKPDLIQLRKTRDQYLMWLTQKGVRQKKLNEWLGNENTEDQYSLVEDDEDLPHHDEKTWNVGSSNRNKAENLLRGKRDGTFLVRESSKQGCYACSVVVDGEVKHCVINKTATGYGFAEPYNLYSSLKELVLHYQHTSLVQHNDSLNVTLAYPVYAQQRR
- protocol.description: PI3K assay ([γ33P]ATP, PtdIns/PtdSer coated plates)
- experimental.parameters: 2 μM ATP, 1 hour at RT; read-out: IC50 (PI3Kα)
pIC50: −log10 of the molar value.
assay.endpoint: pIC50

Record excerpt, results attached:
molecule="c1cc2[nH]nnc2cc1-c1nc(N2CCOCC2)nc2c1ncn2CC1CC1 [Compound 64]" experimental_result="5.30 to 6.00"
molecule="O=C(Cn1cnc2c(-c3cccc(O)c3)nc(N3CCOCC3)nc21)NC1CC1 [Compound 84]" experimental_result="> 6.00"
molecule="CCNc1ccc(Cn2cnc3c(-c4cccc(O)c4)nc(N4CCOCC4)nc32)cc1 [Compound 34]" experimental_result="> 6.00"
molecule="CCC(C)n1cnc2c(-c3cccc(O)c3)nc(N3CCOCC3)nc21 (centres unmarked) [Compound 90]" experimental_result="> 6.00"
molecule="CCCCNc1nc2c(-c3cccc(O)c3)nc(N3CCOCC3)nc2n1C(C)CC (centres unmarked) [Compound 120]" experimental_result="> 6.00"

[Q] Endpoint output: pIC50 of CCCCN1CCC(n2cnc3c(-c4cccc(O)c4)nc(N4CCOCC4)nc32)CC1 [Compound 88] . Value?
[A] > 6.00

[Q] # input molecule: CCNc1nc2c(-c3cccc(O)c3)nc(N3CCOCC3)nc2n1C(C)CC (centres unmarked) [Compound 122] ; wanted: its pIC50
[A] > 6.00

[Q] What pIC50 value was documented for this molecule, CC(c1ccccc1)n1cnc2c(-c3cccc4[nH]ccc34)nc(N3CCOCC3)nc21 (centres unmarked) [Compound 77] ?
[A] < 5.30

The origin of these recorded values is patent US20110009403A1.
